- measurementTarget: UniProt Q02769
- Sequence (Q02769 whole entry): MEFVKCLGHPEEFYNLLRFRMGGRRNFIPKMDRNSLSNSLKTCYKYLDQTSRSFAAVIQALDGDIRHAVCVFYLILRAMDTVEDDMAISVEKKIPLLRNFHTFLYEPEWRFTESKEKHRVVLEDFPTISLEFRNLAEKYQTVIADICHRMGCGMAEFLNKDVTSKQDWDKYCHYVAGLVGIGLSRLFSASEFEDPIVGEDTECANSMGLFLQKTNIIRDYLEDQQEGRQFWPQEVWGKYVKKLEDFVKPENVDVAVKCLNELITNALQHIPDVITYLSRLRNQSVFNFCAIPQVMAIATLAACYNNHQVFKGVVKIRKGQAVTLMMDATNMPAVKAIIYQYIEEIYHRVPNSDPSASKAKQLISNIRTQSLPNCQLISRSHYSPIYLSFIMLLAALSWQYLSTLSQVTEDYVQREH
pIC50: −log10 of the molar value.
A compilation of pIC50 values for UniProt Q02769 from the published literature.
experimentalEndpoint: pIC50

A. CN(Cc1ccc(OCc2ccccc2)cc1)C(=O)[C@@H]1[C@H](C(=O)O)[C@@H](C(=O)O)[C@H]1C(=O)N(C)Cc1ccc(OCc2ccccc2)cc1
B. C=C(CC[C@]12O[C@H](c3nnc(NC)o3)[C@@](O)(C(=O)O)[C@](C(=O)O)(O1)[C@H](OC(=O)/C=C/[C@@H](C)C[C@@H](C)CC)[C@H]2O)[C@@H](C(C)=O)[C@H](C)Cc1ccccc1
C. C=C(CC[C@]12O[C@H](C(=O)O)[C@@](O)(C(=O)O)[C@](C(=O)O)(O1)[C@H](O)[C@H]2O)[C@@H](OC(C)C)[C@H](C)Cc1ccccc1
Ranking field: pIC50; order: falling. As an answer, provide the labels arranged in the order called for.
B, C, A

----------
- measurementTarget: Squalene synthase (Rattus norvegicus, UniProt Q02769)
- Sequence (Q02769 whole entry): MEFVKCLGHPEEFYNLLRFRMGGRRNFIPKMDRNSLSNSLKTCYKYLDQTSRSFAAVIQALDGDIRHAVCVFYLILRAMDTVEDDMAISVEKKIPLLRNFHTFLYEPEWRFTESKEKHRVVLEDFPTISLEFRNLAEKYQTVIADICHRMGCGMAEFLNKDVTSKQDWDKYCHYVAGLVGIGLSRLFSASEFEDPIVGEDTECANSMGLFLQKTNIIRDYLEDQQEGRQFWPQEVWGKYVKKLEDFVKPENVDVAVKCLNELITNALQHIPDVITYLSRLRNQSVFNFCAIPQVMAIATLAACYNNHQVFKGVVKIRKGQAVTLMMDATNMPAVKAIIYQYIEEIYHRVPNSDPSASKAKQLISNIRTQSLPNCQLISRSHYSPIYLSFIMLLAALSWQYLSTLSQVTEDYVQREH
pIC50: −log10 of the molar value.
Consider the following pIC50 data for Squalene synthase (Rattus norvegicus, UniProt Q02769), collected from several reports.
experimentalEndpoint: pIC50

Below, 5 molecules whose answers are already recorded.
{"columns": ["molecule", "measurementTarget", "pIC50"],
 "data": [
  ["CC(C)=CCC/C(C)=C/CCCCC(P(C)(=O)O)P(=O)(O)O (centres undefined)", "Squalene synthase (Rattus norvegicus, UniProt Q02769)", 6.22],
  ["C=C(CC[C@]12O[C@H](C(=O)O)[C@@](O)(C(=O)O)[C@](C(=O)O)(O1)[C@H](OC(=O)CC[C@@H](C)C[C@@H](C)CC)[C@H]2O)[C@H](OC(C)=O)[C@@H](C)Cc1ccccc1", "Squalene synthase (Rattus norvegicus, UniProt Q02769)", 7.89],
  ["CN1CC(O)(c2ccc(-c3ccc(Br)cc3)cc2)OC2CCCCC21 (centres undefined)", "Squalene synthase (Rattus norvegicus, UniProt Q02769)", 5.40],
  ["CC(C)=CCC/C(C)=C/CCCC(P(C)(=O)O)P(=O)(O)O (centres undefined)", "Squalene synthase (Rattus norvegicus, UniProt Q02769)", 7.09],
  ["CN1CCOC(O)(c2ccc(-c3ccc(Br)s3)cc2)C1 (centres undefined)", "Squalene synthase (Rattus norvegicus, UniProt Q02769)", 4.89]
]}

I. OC1(c2ccc3c(c2)Nc2ccccc2S3)CN2CCCCC2CO1 (racemic)
II. CN(Cc1cccc(Oc2ccccc2)c1)C(=O)[C@@H]1[C@H](C(=O)O)[C@@H](C(=O)O)[C@H]1C(=O)N(C)Cc1cccc(Oc2ccccc2)c1
// max by pIC50 over [ I , II ] When you have decided, please share the label of that item.
I

A. CN1CC(O)(c2ccc3c(c2)Nc2ccccc2S3)Sc2ccccc21 (centres undefined)
B. O=C(O)C1OC(CCCCCCc2ccccc2)OC(C(=O)O)C1(O)C(=O)O (centres undefined)
Compare pIC50: is it lower for A or for B ? Let me know the label of the one you choose.
B
(B: 5.10, A: 5.44)

----------
- measurementTarget: Squalene synthase (Rattus norvegicus, UniProt Q02769)
- Sequence (Q02769 whole entry): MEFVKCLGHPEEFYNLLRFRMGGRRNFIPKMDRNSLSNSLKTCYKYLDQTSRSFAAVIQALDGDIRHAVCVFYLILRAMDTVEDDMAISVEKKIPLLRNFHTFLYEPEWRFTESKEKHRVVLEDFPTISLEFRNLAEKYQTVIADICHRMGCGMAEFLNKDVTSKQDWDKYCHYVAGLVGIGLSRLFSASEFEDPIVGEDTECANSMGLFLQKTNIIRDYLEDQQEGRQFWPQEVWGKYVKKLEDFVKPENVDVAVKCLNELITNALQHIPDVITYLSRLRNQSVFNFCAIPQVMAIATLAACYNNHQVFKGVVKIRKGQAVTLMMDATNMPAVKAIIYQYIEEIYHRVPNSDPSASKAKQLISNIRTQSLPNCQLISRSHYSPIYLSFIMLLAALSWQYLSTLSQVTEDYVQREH
pIC50: −log10 of the molar value.
Dear all, I have gathered published pIC50 values for Squalene synthase (Rattus norvegicus, UniProt Q02769); the list follows.
experimentalEndpoint: pIC50

Please review the following examples before continuing.
{"columns": ["molecule", "experimentalEndpoint", "valueReported"],
 "data": [
  ["Br.COc1ccc2cc(C3(O)CN(C)C4CCCCC4O3)ccc2c1 (stereo unspecified)", "pIC50", 4.40],
  ["CN1CC(O)(c2ccc(-c3ccccc3)cc2)Oc2ccccc21 (stereo unspecified)", "pIC50", 4.89],
  ["Br.COc1ccc2cc(C3(O)CN4CCCCC4CO3)ccc2c1 (stereo unspecified)", "pIC50", 4.73],
  ["CCC(=O)Nc1ccc(OCC(O)CNC(C)C)c(Cc2ccccc2)c1 (stereo unspecified)", "pIC50", 6.05],
  ["COc1ccccc1[C@H](O)c1cc(Cl)cc(OC)c1N(CC(C)(C)C)C(=O)CCC(=O)N1CCC[C@H](C(=O)O)C1", "pIC50", 7.26]
]}

1. C=C(CC[C@]12O[C@H](c3csc(C)n3)[C@@](O)(C(=O)O)[C@](C(=O)O)(O1)[C@H](OC(=O)/C=C/[C@@H](C)C[C@@H](C)CC)[C@H]2O)[C@@H](C(C)=O)[C@H](C)Cc1ccccc1
2. c1ccc(CNCc2ccc(OCc3ccccc3)cc2)cc1
3. CN1c2ccccc2Sc2ccc(C3(O)CN(C)C4CCCCC4O3)cc21 (racemic)
4. CC(C)=CCC/C(C)=C/CC/C(C)=C/CN(CCP(=O)(O)C(C)(C)P(=O)(O)O)Cc1ccccc1
5. C=C(CC[C@]12O[C@H](CO)[C@@](O)(C(=O)O)[C@](C(=O)O)(O1)[C@H](OC(=O)CCCCCCCC)[C@H]2O)[C@@H](OC(C)=O)[C@H](C)Cc1ccccc1
Order the records so the highest pIC50 appears first and the lowest last. Form entry: ranked labels (order as requested).
4, 2, 5, 1, 3

1. CC(C)=CCC/C(C)=C/CCCCC(P(=O)(O)O)P(=O)(O)O
2. C=C(CC[C@]12O[C@H](C(=O)O)[C@@](O)(C(=O)O)[C@](C(=O)O)(O1)[C@H](O)[C@H]2O)[C@@H](OCC)[C@H](C)Cc1ccccc1
Would you let me know which has the greater pIC50 value, 1 or 2 ? // caller expects the label of the chosen entry
1

----------
Values of pIC50 for Squalene synthase (Rattus norvegicus), collected from a number of published sources:
pIC50: −log10 of the molar value.
experimentalEndpoint: pIC50

{"columns": ["compound", "pIC50"],
 "data": [
  ["C=C(CC[C@]12O[C@H](CNS(=O)(=O)C(F)(F)F)[C@@](O)(C(=O)O)[C@](C(=O)O)(O1)[C@H](O)[C@H]2O)[C@@H](OC(C)=O)[C@H](C)Cc1ccccc1", 6.00]
]}

a. COC(=O)[C@H](Cc1ccccc1)NC(=O)C(C/C=C(\C)CC/C=C(\C)CCC=C(C)C)P(=O)(O)O (stereo partly drawn)
b. OC1(c2ccc3c(ccc4ccccc43)c2)CN2CCCCC2CO1 (stereo not drawn)
Of a and b , which shows the smaller pIC50 value? Pick one and reply with its label.
a
